assay: Half life in Sprague-Dawley rat at 10 mg/kg, po; assay type: ADME, organism-based; details: in vivo
measured_property: half-life

Cc1ccc(NC(=O)c2ccc(CN(CCN(C)C)C(=O)c3cccnc3)cc2)cc1Nc1nccc(-c2cccnc2)n1 ... 2.03 h

---

target: Platelet-derived growth factor receptor beta (Homo sapiens, UniProt P09619); assay: Inhibition of TEL-fused PDGFRbeta (unknown origin) expressed in mouse BA/F3 cells assessed as growth inhibition after 72 hrs by CellTiter-Glo or CCK-8 assay; type: cell-based
Sequence (P09619 whole entry, the tested form may be a part): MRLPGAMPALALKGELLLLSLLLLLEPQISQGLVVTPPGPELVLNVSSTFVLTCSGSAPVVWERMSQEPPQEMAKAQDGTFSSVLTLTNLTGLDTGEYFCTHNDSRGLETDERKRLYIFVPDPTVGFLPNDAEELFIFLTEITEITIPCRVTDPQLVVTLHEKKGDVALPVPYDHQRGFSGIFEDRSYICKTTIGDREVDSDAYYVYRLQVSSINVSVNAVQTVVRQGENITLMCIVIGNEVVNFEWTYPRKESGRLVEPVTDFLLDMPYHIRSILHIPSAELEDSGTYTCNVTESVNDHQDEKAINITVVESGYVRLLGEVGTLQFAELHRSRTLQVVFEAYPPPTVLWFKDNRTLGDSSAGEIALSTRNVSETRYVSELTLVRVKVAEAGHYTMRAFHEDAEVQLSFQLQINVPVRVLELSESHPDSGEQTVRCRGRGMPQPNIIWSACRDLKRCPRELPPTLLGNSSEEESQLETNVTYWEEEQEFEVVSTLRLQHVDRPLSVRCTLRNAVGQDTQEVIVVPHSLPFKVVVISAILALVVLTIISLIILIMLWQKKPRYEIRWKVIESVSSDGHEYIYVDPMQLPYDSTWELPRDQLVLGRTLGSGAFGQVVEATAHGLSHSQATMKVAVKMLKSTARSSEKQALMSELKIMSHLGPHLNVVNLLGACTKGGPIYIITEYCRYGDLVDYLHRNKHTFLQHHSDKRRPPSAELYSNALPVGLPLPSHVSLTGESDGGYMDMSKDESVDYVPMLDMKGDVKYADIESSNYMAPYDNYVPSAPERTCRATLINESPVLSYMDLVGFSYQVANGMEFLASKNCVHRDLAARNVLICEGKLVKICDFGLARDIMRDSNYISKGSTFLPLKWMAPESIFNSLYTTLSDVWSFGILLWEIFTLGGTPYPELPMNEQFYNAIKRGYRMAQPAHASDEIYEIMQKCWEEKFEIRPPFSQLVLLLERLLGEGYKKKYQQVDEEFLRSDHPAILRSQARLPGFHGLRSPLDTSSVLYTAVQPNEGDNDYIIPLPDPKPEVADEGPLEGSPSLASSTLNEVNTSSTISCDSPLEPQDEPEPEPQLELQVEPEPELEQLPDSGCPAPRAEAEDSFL
log10 of GI50 for assorted compounds
measured_property: log10 of GI50 (log10 of the value in nM)

C=CC(=O)N(CCN(C)C)Cc1ccc(C(=O)Nc2ccc(C)c(Nc3nccc(-c4cccnc4)n3)c2)cc1 ... 2.54
C=CC(=O)Nc1cc(C(=O)Nc2ccc(C)c(Nc3nccc(-c4cccnc4)n3)c2)cc(C(F)(F)F)c1 ... 1.99
Cc1ccc(NC(=O)c2ccc(CN(CCN(C)C)C(=O)C3CC3)cc2)cc1Nc1nccc(-c2cccnc2)n1 ... 2.64
CCC(=O)N(CCN(C)C)Cc1ccc(C(=O)Nc2ccc(C)c(Nc3nccc(-c4cccnc4)n3)c2)cc1 ... 2.70
Cc1ccc(NC(=O)c2ccc(NC(=O)c3cccnc3)cc2)cc1Nc1nccc(-c2cccnc2)n1 ... 2.77
Cc1ccc(NC(=O)c2ccc(CN(CCO)C(=O)c3cccnc3)cc2)cc1Nc1nccc(-c2cccnc2)n1 ... 3.48
CCC(=O)Nc1ccc(C(=O)Nc2ccc(C)c(Nc3nccc(-c4cccnc4)n3)c2)cc1 ... 2.95
CCC(=O)NCc1ccc(C(=O)Nc2ccc(C)c(Nc3nccc(-c4cccnc4)n3)c2)cc1 ... 2.30

---

assay: Cmax in Sprague-Dawley rat at 10 mg/kg, po; type: ADME, organism-based; parameters: dose 10 mg/kg, route oral; settings: in vivo
# Cmax annotations
measured_property: Cmax (ng/mL)

Cc1ccc(NC(=O)c2ccc(CN(CCN(C)C)C(=O)c3cccnc3)cc2)cc1Nc1nccc(-c2cccnc2)n1 ... 28.9
Cc1ccc(NC(=O)c2ccc(CN3CCN(C)CC3)cc2)cc1Nc1nccc(-c2cccnc2)n1 ... 531

---

biological target: Tyrosine-protein kinase ABL1 (Homo sapiens, UniProt P00519)
Sequence (P00519 whole entry): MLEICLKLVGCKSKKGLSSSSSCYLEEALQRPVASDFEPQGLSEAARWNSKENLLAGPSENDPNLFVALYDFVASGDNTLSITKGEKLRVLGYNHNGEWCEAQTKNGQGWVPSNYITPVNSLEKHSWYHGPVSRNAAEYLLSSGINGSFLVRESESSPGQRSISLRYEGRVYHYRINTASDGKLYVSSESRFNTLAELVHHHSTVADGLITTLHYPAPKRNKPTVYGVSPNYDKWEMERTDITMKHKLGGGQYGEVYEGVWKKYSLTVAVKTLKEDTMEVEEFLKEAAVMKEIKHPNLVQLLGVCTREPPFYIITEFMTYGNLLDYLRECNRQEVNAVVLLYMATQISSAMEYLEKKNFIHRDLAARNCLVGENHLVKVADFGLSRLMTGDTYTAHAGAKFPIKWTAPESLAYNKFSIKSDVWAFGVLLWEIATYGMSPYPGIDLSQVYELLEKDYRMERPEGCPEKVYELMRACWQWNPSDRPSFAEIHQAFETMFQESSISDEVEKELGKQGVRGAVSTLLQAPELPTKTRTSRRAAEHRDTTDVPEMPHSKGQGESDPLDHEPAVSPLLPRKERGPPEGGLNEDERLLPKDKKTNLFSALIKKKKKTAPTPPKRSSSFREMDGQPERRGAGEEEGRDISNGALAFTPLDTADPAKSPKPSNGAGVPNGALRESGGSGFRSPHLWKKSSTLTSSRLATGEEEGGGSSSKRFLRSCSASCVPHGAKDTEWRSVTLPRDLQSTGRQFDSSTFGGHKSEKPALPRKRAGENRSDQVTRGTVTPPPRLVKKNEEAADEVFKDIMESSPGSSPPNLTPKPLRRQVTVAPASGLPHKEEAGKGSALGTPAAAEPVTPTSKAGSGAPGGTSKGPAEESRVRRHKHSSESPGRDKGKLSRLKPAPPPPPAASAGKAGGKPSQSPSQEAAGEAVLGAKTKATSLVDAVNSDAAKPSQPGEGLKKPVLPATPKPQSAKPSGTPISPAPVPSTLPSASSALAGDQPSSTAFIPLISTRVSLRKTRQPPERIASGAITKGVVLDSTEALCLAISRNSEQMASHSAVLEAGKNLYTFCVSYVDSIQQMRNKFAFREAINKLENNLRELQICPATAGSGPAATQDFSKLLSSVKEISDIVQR
measured_property: IC50

Cc1ccc(NC(=O)c2ccc(CN(CCN(C)C)C(=O)c3cccnc3)cc2)cc1Nc1nccc(-c2cccnc2)n1 ... > 10 µM

---

assay: Apparent clearance in Sprague-Dawley rat at 1 mg/kg, iv; assay type: ADME, organism-based; details: in vivo, read-out: CL(app) (converted)
measured_property: clearance

Cc1ccc(NC(=O)c2ccc(CN(CCN(C)C)C(=O)c3cccnc3)cc2)cc1Nc1nccc(-c2cccnc2)n1 ... 32.7 mL/min/kg

---

Collected GI50 values appear next to each entry.
molecular target: Mast/stem cell growth factor receptor Kit (Homo sapiens, UniProt P10721); experiment: Inhibition of TEL-fused c-KIT (unknown origin) expressed in mouse BA/F3 cells assessed as growth inhibition after 72 hrs by CellTiter-Glo or CCK-8 assay; format: cell-based
Sequence (P10721 whole entry, the tested form may be a part): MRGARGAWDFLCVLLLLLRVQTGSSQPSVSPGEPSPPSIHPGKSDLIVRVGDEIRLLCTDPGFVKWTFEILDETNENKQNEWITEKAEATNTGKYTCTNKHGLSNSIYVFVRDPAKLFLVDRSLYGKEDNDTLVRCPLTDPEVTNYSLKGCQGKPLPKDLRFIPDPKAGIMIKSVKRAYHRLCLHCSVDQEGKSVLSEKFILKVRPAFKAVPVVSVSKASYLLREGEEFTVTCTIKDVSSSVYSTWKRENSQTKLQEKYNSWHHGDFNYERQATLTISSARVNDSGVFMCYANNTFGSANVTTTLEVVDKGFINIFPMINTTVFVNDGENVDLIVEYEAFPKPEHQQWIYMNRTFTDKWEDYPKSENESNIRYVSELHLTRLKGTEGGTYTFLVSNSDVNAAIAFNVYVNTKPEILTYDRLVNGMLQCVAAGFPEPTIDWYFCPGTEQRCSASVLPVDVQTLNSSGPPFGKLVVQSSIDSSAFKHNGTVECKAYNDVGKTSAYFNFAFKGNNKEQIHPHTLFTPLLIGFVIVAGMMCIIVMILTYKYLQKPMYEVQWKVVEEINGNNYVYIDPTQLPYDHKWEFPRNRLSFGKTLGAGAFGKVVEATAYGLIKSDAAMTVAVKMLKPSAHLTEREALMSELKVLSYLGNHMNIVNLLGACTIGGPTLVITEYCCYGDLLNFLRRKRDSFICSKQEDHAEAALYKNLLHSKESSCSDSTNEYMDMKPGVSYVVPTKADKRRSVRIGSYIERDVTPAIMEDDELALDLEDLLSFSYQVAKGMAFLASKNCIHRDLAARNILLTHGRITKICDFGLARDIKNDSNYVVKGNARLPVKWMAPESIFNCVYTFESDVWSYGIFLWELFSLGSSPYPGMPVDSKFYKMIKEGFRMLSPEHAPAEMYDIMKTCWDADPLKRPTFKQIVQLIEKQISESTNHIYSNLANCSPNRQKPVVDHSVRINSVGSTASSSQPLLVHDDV
measured_property: GI50

Cc1ccc(NC(=O)c2ccc(CN(CCN(C)C)C(=O)c3cccs3)cc2)cc1Nc1nccc(-c2cccnc2)n1 ... > 10 µM
C/C=C/C(=O)N(CCN(C)C)Cc1ccc(C(=O)Nc2ccc(C)c(Nc3nccc(-c4cccnc4)n3)c2)cc1 ... > 10 µM
Cc1ccc(NC(=O)c2ccc(CN(CCO)C(=O)c3cccnc3)cc2)cc1Nc1nccc(-c2cccnc2)n1 ... > 10 µM
